Tested on: K562
assay method text: NCI tumour cell line growth inhibition, 48 h
Structures can show the parent of a compound that is named as a salt. Active and inactive are the calls of the source. No stated cut-off is given here; in the data, active = GI50 up to about 1.1 µM and inactive = higher.
Here, each record is paired with measured GI50 data.

Known results for compounds:
### Prompt What value of GI50 on K562 does "C=CCOCn1cnc2c(=O)[nH]c(N)nc21" have?
### Response > 100 µM (inactive)

### Prompt Request: COc1c2c(cc3nc4ccccc4nc13)CCC(C(C)(C)O)C2 (stereo unspecified)
### Response 73.8 µM (inactive)

### Prompt Then "CC(C)(C)c1cc(COc2c3sc(=S)sc3c(OCc3cc(C(C)(C)C)cc(C(C)(C)C)c3)c3sc(=S)sc23)cc(C(C)(C)C)c1" ?
### Response > 100 µM (inactive)

### Prompt Item: "C1CSCC2(COC2)CSCCSCC2(COC2)CS1"
### Response > 100 µM (inactive)

### Prompt Try this compound too: c1ccc2c(c1)C1CCCCCC21N1CCOCC1 (stereo unspecified)
### Response 45.1 µM (inactive)

Turning to the following compound.
### Prompt Request: GI50, test system K562, entry CN1[C@@H]2CC[C@H]1C[C@@H](OC(c1ccccc1)c1ccccc1)C2 [BENZTROPINE MESYLATE]
### Response 13.1 µM (inactive)
